FYI, the data here is from ChEMBL document CHEMBL1800066.

measurementProtocol: Oral bioavailability in rat at 1 mg/kg
Format: ADME, organism-based
testContext: in vivo
endpointName: bioavailability
State the value, then name its unit.

Indicate its recorded bioavailability; the compound in question is `Cn1cc(-c2cnc3ccc4ccc(NS(=O)(=O)N5CCC5)cc4c(=O)c3c2)cn1`
29%

###

measurementProtocol: Oral bioavailability in mouse at 2 mg/kg
Format: ADME, organism-based
testContext: in vivo
endpointName: bioavailability (%)
Report only the number, with the unit % understood.

Indicate its recorded bioavailability; the compound in question is `CN(C[C@@H]1COCCO1)S(=O)(=O)Nc1ccc2ccc3ncc(-c4cnn(C)c4)cc3c(=O)c2c1`
75

###

measurementProtocol: Volume of distribution at steady state in monkey at 0.25 mg/kg, iv
Assay type: ADME, organism-based, Macaca mulatta
Parameters: dose 0.25 mg/kg, route intravenous
testContext: rhesus monkey, in vivo, read-out: Vdss
endpointName: Vd
State the value, then name its unit.

Indicate its recorded Vd; the molecule in question is CN(C[C@@H]1COCCO1)S(=O)(=O)Nc1ccc2ccc3ncc(-c4cnn(C)c4)cc3c(=O)c2c1 [MK-2461]
0.5 L/kg

###

measurementProtocol: AUC (0 to infinity) in monkey at 0.25 mg/kg, iv
Assay type: ADME, organism-based, Macaca mulatta
Set-up: time infinity, dose 0.25 mg/kg, route intravenous
testContext: rhesus monkey, plasma
endpointName: AUC(0-inf) (µM·h)
Report only the number, with the unit µM·h understood.

Indicate its recorded AUC(0-inf); the molecule in question is `CN(C[C@@H]1COCCO1)S(=O)(=O)Nc1ccc2ccc3ncc(-c4cnn(C)c4)cc3c(=O)c2c1`
1

###

measurementProtocol: Volume of distribution at steady state in rat at 2 mg/kg, iv and 5 mg/kg, po
Assay type: ADME, organism-based
testContext: in vivo, read-out: Vdss
endpointName: Vd
State the value, then name its unit.

Indicate its recorded Vd; the compound in question is CN(C[C@@H]1COCCO1)S(=O)(=O)Nc1ccc2ccc3ncc(-c4cnn(C)c4)cc3c(=O)c2c1 [MK-2461]
0.4 L/kg

###

assayedTarget: Hepatocyte growth factor receptor (Homo sapiens, UniProt P08581, N1100Y)
endpointName: IC50 (nM)
Report only the number, with the unit nM understood.

Indicate its recorded IC50; the compound in question is `CN(C[C@@H]1COCCO1)S(=O)(=O)Nc1ccc2ccc3ncc(-c4cnn(C)c4)cc3c(=O)c2c1`
1.5

###

measurementProtocol: AUC (0 to infinity) in rat at 5 mg/kg, po
Assay type: ADME, organism-based
Set-up: dose 5 mg/kg, route oral, time infinity
testContext: plasma
endpointName: AUC(0-inf) (µM·h)
Report only the number, with the unit µM·h understood.

Indicate its recorded AUC(0-inf); the molecule in question is CN(C[C@@H]1COCCO1)S(=O)(=O)Nc1ccc2ccc3ncc(-c4cnn(C)c4)cc3c(=O)c2c1 [MK-2461]
11.8

###

// values below are reported half-life
measurementProtocol: Half life in rat at 2 mg/kg, iv
Assay type: ADME, organism-based
Set-up: dose 2 mg/kg, route intravenous
testContext: in vivo
Report only the number, with the unit h understood.

The cases that follow already have their half-life on record.
Indicate its recorded half-life; the compound in question is `CN(Cc1cnccn1)S(=O)(=O)Nc1ccc2ccc3ncc(-c4cnn(C)c4)cc3c(=O)c2c1`
0.7

Indicate its recorded half-life; the compound in question is `COCCCN(C)S(=O)(=O)Nc1ccc2ccc3ncc(-c4cnn(C)c4)cc3c(=O)c2c1`
1.3

// moving on: another record for half-life
Indicate its recorded half-life; the compound in question is `Cn1cc(-c2cnc3ccc4ccc(NS(=O)(=O)N5CC(F)C5)cc4c(=O)c3c2)cn1`
1.8

###

assayedTarget: Hepatocyte growth factor receptor (Homo sapiens)
measurementProtocol: Inhibition of c-MET overexpressed in human GTL-16 cells assessed as phosphorylation at C-terminal Y1235 after 2 hrs by Western blot analysis
Format: cell-based
endpointName: IC50

Indicate its recorded IC50; the molecule in question is `CN(C[C@@H]1COCCO1)S(=O)(=O)Nc1ccc2ccc3ncc(-c4cnn(C)c4)cc3c(=O)c2c1`
> 2.5 µM

###

measurementProtocol: Plasma clearance in rat at 2 mg/kg, iv and 4 mg/kg, po
Type: ADME, organism-based
// values below are reported clearance
Report only the number, with the unit mL/min/kg understood.

The cases that follow already have their clearance on record.
Indicate its recorded clearance; the compound in question is `CNS(=O)(=O)Nc1ccc2ccc3ncc(-c4cnn(C)c4)cc3c(=O)c2c1`
33.8

Indicate its recorded clearance; the compound in question is `CS(=O)(=O)Nc1ccc2ccc3ncc(-c4ccccc4)cc3c(=O)c2c1`
24

// moving on: another record for clearance
Indicate its recorded clearance; the compound in question is `Cn1cc(-c2cnc3ccc4ccc(NS(C)(=O)=O)cc4c(=O)c3c2)cn1`
40

###

assayedTarget: High affinity nerve growth factor receptor (Homo sapiens, UniProt P04629)
Sequence (P04629 whole entry): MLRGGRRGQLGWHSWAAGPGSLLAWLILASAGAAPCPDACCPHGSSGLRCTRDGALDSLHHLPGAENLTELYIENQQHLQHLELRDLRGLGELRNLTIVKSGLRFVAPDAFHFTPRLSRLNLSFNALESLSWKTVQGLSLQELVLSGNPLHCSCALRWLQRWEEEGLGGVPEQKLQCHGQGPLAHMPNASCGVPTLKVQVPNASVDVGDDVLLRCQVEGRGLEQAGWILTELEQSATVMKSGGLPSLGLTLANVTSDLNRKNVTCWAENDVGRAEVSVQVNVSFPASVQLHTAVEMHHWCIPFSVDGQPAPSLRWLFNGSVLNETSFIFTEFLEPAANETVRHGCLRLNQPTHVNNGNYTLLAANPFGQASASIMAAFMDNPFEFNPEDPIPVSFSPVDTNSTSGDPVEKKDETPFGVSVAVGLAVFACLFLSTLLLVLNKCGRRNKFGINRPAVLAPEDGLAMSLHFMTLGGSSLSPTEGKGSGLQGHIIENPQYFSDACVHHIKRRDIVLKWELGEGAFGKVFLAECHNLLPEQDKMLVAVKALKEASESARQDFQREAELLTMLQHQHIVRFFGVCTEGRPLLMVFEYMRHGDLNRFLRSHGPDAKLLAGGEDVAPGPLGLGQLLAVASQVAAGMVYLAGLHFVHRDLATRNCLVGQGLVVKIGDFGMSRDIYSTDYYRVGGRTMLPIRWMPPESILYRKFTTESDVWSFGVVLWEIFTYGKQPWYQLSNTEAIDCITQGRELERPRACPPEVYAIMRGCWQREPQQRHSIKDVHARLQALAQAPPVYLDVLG
endpointName: IC50
State the value, then name its unit.

Enter measured IC50, system High affinity nerve growth factor receptor (Homo sapiens, UniProt P04629), for the compound shown: `CN(C[C@@H]1COCCO1)S(=O)(=O)Nc1ccc2ccc3ncc(-c4cnn(C)c4)cc3c(=O)c2c1`
46 nM

###

measurementProtocol: Volume of distribution at steady state in dog at 1 mg/kg, iv
Format: ADME, organism-based, Canis lupus familiaris
Parameters: dose 1 mg/kg, route intravenous
testContext: in vivo, read-out: Vdss
endpointName: Vd
State the value, then name its unit.

Indicate its recorded Vd; the compound in question is `CN(C[C@@H]1COCCO1)S(=O)(=O)Nc1ccc2ccc3ncc(-c4cnn(C)c4)cc3c(=O)c2c1`
1.1 L/kg

###

assayedTarget: Hepatocyte growth factor receptor (Homo sapiens, UniProt P08581, Y1235D)
Sequence (P08581 25-1390 Y1235D limits assumed): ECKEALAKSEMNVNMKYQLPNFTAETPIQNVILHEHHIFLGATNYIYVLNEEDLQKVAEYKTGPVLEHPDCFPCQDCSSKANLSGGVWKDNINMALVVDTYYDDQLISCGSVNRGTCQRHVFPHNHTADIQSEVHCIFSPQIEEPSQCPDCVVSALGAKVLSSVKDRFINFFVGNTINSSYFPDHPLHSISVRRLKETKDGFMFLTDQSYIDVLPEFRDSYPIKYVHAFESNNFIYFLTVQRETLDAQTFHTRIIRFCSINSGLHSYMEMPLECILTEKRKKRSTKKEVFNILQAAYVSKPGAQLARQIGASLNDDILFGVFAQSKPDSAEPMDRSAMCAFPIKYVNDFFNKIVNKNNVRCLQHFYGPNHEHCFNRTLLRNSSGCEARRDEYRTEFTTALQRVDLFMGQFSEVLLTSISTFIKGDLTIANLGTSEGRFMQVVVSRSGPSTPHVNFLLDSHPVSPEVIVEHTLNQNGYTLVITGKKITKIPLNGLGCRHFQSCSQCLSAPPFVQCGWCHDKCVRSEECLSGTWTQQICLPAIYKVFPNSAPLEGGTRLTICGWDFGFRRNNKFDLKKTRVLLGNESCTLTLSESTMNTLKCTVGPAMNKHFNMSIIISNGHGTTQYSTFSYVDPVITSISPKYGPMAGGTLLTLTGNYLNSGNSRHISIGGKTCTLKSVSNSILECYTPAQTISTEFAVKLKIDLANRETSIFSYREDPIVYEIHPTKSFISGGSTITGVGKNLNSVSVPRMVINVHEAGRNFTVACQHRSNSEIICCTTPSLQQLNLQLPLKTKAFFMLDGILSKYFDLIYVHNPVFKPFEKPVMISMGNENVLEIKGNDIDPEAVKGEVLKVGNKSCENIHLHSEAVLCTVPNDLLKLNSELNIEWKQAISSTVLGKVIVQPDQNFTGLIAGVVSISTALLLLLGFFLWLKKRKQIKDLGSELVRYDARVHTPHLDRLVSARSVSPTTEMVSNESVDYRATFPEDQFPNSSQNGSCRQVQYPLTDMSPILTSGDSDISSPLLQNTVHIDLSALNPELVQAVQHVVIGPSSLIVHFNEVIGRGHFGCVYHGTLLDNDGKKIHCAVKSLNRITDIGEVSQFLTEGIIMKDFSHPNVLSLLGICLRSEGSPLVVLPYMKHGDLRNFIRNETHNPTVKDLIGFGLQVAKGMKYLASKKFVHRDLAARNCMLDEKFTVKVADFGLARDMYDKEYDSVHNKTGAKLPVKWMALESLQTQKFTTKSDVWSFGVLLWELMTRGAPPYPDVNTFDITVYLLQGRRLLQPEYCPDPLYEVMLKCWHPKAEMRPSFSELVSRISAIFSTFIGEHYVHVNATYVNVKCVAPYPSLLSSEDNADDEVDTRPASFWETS
endpointName: IC50 (nM)
Report only the number, with the unit nM understood.

Indicate its recorded IC50; the molecule in question is `CN(C[C@@H]1COCCO1)S(=O)(=O)Nc1ccc2ccc3ncc(-c4cnn(C)c4)cc3c(=O)c2c1`
0.5

###

assayedTarget: Receptor-type tyrosine-protein kinase FLT3 (Homo sapiens)
Sequence (P36888 whole entry): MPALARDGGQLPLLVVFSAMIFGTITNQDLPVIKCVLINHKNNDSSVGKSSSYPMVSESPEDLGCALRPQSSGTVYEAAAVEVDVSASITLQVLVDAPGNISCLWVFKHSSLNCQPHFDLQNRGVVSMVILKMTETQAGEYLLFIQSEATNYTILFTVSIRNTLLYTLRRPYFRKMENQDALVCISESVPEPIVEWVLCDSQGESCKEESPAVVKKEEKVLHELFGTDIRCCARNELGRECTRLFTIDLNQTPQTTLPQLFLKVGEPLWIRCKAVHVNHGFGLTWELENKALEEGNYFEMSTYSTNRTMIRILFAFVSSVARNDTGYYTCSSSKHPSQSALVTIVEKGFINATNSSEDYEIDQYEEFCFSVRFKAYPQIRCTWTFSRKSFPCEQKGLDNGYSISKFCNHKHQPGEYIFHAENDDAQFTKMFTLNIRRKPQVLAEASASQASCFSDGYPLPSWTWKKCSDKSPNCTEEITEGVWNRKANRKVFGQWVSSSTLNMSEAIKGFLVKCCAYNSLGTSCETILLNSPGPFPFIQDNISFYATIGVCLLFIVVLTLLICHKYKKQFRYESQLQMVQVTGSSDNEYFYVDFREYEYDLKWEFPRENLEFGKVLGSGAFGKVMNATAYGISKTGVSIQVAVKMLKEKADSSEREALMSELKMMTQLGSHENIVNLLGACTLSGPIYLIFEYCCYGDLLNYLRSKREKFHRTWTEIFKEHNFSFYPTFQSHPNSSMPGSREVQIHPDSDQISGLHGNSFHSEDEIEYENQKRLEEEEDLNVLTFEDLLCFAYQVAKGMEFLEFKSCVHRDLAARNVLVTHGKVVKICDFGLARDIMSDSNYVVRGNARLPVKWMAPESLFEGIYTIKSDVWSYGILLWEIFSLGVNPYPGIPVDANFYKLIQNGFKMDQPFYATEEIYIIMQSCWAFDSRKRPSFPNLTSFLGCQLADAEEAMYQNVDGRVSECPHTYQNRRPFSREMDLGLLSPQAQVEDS
endpointName: pIC50
# reply with the number alone; pIC50 is -log10 of concentration in mol/L

Indicate its recorded pIC50; the compound in question is `CN(C[C@@H]1COCCO1)S(=O)(=O)Nc1ccc2ccc3ncc(-c4cnn(C)c4)cc3c(=O)c2c1`
7.66

###

assayedTarget: UniProtKB P17948
Sequence (P17948 whole entry): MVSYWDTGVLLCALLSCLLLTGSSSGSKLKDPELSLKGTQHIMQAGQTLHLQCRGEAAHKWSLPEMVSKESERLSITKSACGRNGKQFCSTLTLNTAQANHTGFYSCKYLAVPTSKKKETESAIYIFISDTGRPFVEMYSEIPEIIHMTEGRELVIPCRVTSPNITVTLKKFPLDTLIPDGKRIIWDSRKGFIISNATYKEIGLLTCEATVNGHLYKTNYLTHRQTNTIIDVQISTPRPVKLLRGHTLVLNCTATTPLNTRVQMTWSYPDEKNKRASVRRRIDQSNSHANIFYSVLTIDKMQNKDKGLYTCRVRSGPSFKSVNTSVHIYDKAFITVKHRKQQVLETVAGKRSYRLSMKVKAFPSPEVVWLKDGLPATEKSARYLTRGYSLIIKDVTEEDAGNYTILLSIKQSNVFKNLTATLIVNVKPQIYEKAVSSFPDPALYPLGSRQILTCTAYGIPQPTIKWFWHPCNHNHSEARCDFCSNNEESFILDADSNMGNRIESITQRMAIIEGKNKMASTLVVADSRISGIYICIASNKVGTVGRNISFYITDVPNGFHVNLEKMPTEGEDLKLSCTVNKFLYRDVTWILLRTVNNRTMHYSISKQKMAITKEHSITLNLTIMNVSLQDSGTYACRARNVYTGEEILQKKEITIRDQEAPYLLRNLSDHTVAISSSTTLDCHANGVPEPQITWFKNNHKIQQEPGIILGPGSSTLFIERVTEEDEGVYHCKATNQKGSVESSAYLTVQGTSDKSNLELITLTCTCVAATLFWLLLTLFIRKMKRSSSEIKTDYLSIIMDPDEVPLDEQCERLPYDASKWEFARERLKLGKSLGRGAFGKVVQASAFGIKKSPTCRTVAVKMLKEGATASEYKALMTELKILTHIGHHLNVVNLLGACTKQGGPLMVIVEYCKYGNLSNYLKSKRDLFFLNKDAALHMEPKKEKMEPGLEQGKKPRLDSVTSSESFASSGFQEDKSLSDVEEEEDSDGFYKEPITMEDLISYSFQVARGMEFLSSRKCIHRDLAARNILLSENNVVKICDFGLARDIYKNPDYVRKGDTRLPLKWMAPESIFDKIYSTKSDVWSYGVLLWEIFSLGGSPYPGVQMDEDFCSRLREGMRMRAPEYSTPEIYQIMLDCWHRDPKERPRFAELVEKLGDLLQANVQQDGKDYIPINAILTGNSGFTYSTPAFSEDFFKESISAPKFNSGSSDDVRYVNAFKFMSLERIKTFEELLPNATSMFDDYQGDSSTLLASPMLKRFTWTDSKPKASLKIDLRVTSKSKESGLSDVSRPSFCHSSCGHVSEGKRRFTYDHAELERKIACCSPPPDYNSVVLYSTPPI
endpointName: IC50 (nM)
Report only the number, with the unit nM understood.

Enter measured IC50, system UniProtKB P17948, for the compound shown: CN(C[C@@H]1COCCO1)S(=O)(=O)Nc1ccc2ccc3ncc(-c4cnn(C)c4)cc3c(=O)c2c1 [MK-2461]
10

###

measurementProtocol: Cmax in monkey at 0.5 mg/kg, po
Assay type: ADME, organism-based, Macaca mulatta
Design: dose 0.5 mg/kg, route oral
testContext: rhesus monkey, in vivo
endpointName: Cmax (nM)
Report only the number, with the unit nM understood.

Indicate its recorded Cmax; the compound in question is CN(C[C@@H]1COCCO1)S(=O)(=O)Nc1ccc2ccc3ncc(-c4cnn(C)c4)cc3c(=O)c2c1 [MK-2461]
120
